Values from PubChem BioAssay AID2465

- Measurement Protocol: A1 inhibitors via caspase activation, primary screen, cell-based, luminescence, HTS, two replicates (AID 2465)
- Condition Parameters: MEF A1-2A-BIM cells, caspase-Glo luminescence, 3 h; active compounds read high; percent of clofoctol response, DMSO zero; concentration not given here
Fewer than 10 of roughly 24,000 compounds were called active. The list is a sample of the results.

{"Smiles Text": "COC(=O)CCCCCCC(=O)N/N=C/c1ccc(I)cc1", "Readout Unit": "%", "caspase activation": 0.387}
{"Smiles Text": "O=C(CCCCCC(=O)Nc1ccccc1O)N/N=C/c1ccc(Br)o1", "Readout Unit": "%", "caspase activation": 0.454}
{"Smiles Text": "C[C@@H]1CN([C@H](C)CO)C(=O)c2cc(NC(=O)NC3CCCCC3)ccc2O[C@@H](C)CCCCO[C@H]1CN(C)C(=O)Nc1ccccc1", "Readout Unit": "%", "caspase activation": -0.462}
{"Smiles Text": "C[C@@H]1CN([C@H](C)CO)C(=O)c2cc(NC(=O)c3ccncc3)ccc2O[C@@H](C)CCCCO[C@@H]1CN(C)CC1CC1", "Readout Unit": "%", "caspase activation": -1.05}
{"Smiles Text": "COc1ccc(S(=O)(=O)Nc2ccc3c(c2)C(=O)N([C@H](C)CO)C[C@H](C)[C@@H](CN(C)Cc2ccccc2)OCCCC[C@@H](C)O3)cc1", "Readout Unit": "%", "caspase activation": 0.258}
{"Smiles Text": "C[C@@H]1CCCCO[C@@H](CN(C)C(=O)C2CCCCC2)[C@H](C)CN([C@H](C)CO)C(=O)c2cc(NC(=O)c3ccccc3)ccc2O1", "Readout Unit": "%", "caspase activation": -0.0371}
{"Smiles Text": "C[C@H](CO)N1C[C@H](C)[C@H](CN(C)Cc2ccc(C(=O)O)cc2)OCc2cn(nn2)CCCC1=O", "Readout Unit": "%", "caspase activation": 0.235}
{"Smiles Text": "Cc1noc(C)c1NC(=O)N(C)C[C@H]1OCCCC[C@H](C)Oc2ccc(NC(=O)Cc3ccccc3)cc2C(=O)N([C@H](C)CO)C[C@@H]1C", "Readout Unit": "%", "caspase activation": -0.000815}
{"Smiles Text": "Cc1noc(C)c1NC(=O)Nc1ccc2c(c1)C(=O)N([C@H](C)CO)C[C@@H](C)[C@@H](CN(C)Cc1ccncc1)OCCCC[C@H](C)O2", "Readout Unit": "%", "caspase activation": -0.749}
{"Smiles Text": "C[C@@H]1CN([C@H](C)CO)C(=O)Cc2cc(NC(=O)C3CCCCC3)ccc2O[C@H]1CN(C)S(=O)(=O)c1ccc(Cl)cc1", "Readout Unit": "%", "caspase activation": -0.597}
{"Smiles Text": "C[C@@H]1CN([C@@H](C)CO)C(=O)CCCn2nncc2CO[C@@H]1CN(C)S(=O)(=O)c1ccc(-c2ccccc2)cc1", "Readout Unit": "%", "caspase activation": -0.179}
{"Smiles Text": "COc1ccc(S(=O)(=O)Nc2cccc3c2O[C@@H](CN(C)C(=O)Nc2cccc4ccccc24)[C@H](C)CN([C@@H](C)CO)C3=O)cc1", "Readout Unit": "%", "caspase activation": -1.43}
{"Smiles Text": "C[C@@H]1CN([C@@H](C)CO)C(=O)c2cc(NC(=O)CCCCCC(=O)Nc3ccccc3N)ccc2O[C@@H](C)CCCCO[C@@H]1CN(C)CC1CCCCC1", "Readout Unit": "%", "caspase activation": 0.522}
{"Smiles Text": "C[C@H](CO)N1C[C@H](C)[C@@H](CN(C)S(=O)(=O)c2ccccc2)Oc2ccc(NC(=O)Nc3ccc(F)cc3)cc2CC1=O", "Readout Unit": "%", "caspase activation": -0.112}
{"Smiles Text": "COc1cc(O)cc(OC)c1/C=N/NC(=O)c1ccccc1O", "Readout Unit": "%", "caspase activation": -0.325}
